Origin of values: ChEMBL document CHEMBL1143742

Target: Leucine--tRNA ligase, cytoplasmic (Saccharomyces cerevisiae S288c)
Assay: Inhibition of Saccharomyces cerevisiae cytoplasmic leucyl-tRNA synthetase after 20 mins
observed.property: pKi
Give only the number. pKi is defined as minus log10 of concentration in molar units.

Give its pKi value. Item: "OB1OCc2cc(F)ccc21"
5.73

---

Target: Leucine--tRNA ligase, cytoplasmic (Saccharomyces cerevisiae S288c)
Sequence (P26637 whole entry): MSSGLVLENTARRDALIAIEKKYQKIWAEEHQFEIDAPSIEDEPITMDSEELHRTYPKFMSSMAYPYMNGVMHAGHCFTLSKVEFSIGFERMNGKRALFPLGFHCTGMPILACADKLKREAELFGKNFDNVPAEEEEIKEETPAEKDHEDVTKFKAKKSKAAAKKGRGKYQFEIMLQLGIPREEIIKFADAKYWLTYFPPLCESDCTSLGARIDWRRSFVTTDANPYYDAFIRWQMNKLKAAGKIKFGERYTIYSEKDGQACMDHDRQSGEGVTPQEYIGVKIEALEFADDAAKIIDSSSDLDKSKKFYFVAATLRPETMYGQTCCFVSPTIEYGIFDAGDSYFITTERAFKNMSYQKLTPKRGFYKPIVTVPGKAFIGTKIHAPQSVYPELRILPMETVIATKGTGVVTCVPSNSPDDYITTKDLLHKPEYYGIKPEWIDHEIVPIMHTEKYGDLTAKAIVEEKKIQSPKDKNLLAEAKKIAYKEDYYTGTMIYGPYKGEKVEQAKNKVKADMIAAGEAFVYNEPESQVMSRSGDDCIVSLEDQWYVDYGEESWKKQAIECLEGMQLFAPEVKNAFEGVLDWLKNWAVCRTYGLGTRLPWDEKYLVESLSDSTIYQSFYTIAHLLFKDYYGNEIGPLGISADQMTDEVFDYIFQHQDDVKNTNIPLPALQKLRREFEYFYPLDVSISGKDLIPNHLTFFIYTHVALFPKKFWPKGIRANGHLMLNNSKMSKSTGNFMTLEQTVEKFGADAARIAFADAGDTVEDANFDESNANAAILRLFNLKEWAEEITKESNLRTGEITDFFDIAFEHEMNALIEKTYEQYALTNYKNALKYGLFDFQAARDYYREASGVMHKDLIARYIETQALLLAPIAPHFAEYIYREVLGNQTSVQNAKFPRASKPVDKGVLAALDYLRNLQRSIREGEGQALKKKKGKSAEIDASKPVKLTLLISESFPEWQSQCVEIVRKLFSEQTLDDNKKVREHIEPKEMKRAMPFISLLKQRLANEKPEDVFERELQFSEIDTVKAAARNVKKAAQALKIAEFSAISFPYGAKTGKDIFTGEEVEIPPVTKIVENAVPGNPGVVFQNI
Experiment: Inhibition of Saccharomyces cerevisiae cytoplasmic leucyl-tRNA synthetase after 2 mins
observed.property: Ki (µM)
# number only, unit µM dropped from output

// query Ki value for entry "OB1OCc2cc(F)ccc21"
31.4
